Recorded pIC50, one value per entry.
Target: FGFR2 (Homo sapiens (Human), UniProt P21802)
Sequence (P21802 22-821): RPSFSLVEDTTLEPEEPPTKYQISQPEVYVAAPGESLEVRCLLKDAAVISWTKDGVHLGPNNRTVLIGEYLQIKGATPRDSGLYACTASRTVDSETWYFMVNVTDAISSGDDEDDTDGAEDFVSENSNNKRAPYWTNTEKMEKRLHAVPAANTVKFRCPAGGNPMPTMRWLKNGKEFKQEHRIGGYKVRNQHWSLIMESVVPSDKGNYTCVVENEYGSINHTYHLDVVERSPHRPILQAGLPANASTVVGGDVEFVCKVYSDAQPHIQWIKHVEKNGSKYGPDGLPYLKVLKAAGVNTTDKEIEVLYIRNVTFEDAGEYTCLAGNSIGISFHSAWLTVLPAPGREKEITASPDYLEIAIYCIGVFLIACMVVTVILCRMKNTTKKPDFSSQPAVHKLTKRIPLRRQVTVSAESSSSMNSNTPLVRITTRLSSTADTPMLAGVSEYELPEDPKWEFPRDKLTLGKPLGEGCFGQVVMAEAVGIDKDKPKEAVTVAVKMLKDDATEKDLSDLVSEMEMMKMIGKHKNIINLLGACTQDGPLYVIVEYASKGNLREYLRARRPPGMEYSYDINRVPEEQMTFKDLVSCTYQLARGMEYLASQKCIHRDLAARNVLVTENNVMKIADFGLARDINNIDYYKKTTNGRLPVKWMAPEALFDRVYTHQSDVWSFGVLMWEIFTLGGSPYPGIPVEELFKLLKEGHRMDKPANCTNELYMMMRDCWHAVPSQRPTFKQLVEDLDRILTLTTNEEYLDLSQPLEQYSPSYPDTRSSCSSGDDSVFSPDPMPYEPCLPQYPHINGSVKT
Experiment: FGFR2 Biochemical Caliper Assay
pIC50: −log10 of the molar value.

The cases that follow already have their pIC50 on record.
1) C=C(CN(C)C)C(=O)Nc1ccc(-c2c(-c3ccc(Oc4cccc(C)n4)cc3)c3c(N)ncnc3n2C)cc1 ... > 7.00
2) C=CC(=O)N1CCC(c2c(-c3ccc(C(=O)c4ccccc4)cc3)c3c(N)ncnc3n2C)C1 (stereo not shown) ... > 7.00
3) C=C(C)C(=O)Nc1ccc(-c2c(-c3ccc(C(=O)N4CCCC4)cc3)c3c(N)ncnc3n2C)c(F)c1 ... > 7.00

Query: Which measured pIC50 value corresponds to C=CC(=O)Nc1ccc(-c2c(-c3ccc(OC4CCOC4)c(C)c3)c3c(N)ncnc3n2C)cc1 (stereo not shown) ?
Reply: > 7.00

* * *

Recorded IC50, one value per entry.
Target: FGFR2 (Homo sapiens (Human), UniProt P21802)
Experiment: FGFR2 Biochemical Caliper Assay

The cases that follow already have their IC50 on record.
1) C=C(C)C(=O)Nc1ccc(-c2c(-c3ccc(C(=O)NC4CCOC4)c(F)c3)c3c(N)ncnc3n2C)cc1 (centres unmarked) ... 100 to 250 nM
2) C=C(C)C(=O)Nc1ccc(-c2[nH]c3ncnc(N)c3c2-c2ccc(C(=O)N3CCCC3)cc2)cc1 ... < 100 nM

Query: Which measured IC50 value corresponds to C=C(C)C(=O)Nc1ccc(-c2c(-c3cnn(Cc4cccnc4)c3)c3c(N)ncnc3n2C)cc1 ?
Reply: 1000 to 100000 nM

Query: Please give the result for C=C(C)C(=O)Nc1ccc(-c2c(-c3ccc(Oc4ncc(F)cn4)c(C#N)c3)c3c(N)ncnc3n2C)cc1 too.
Reply: 100 to 250 nM

Query: Please give the result for C=C(C)C(=O)Nc1ccc(-c2c(-c3ccc(Oc4nccc(COC)n4)c(F)c3)c3c(N)ncnc3n2C)cc1 too.
Reply: < 100 nM

* * *

Recorded IC50, one value per entry.
Target: FGFR2 (Homo sapiens (Human))
Experiment: FGFR2 Biochemical Caliper Assay

1) CC#CC(=O)N1CCC(n2cc(-c3c(-c4ccc(Oc5cccc(C)n5)cc4)c4c(N)ncnc4n3C)cn2)CC1 ... 250 to 1000 nM
2) C=CC(=O)N1CCC(c2c(-c3ccc(OCC4CC4)cc3)c3c(N)ncnc3n2C)C1 (stereo not shown) ... 100 to 250 nM
3) C=C(C)C(=O)N1CCC(n2cc(-c3c(-c4ccc(Oc5ccccc5)cc4)c4c(N)ncnc4n3C)cn2)CC1 ... 100 to 250 nM

Query: Which measured IC50 value corresponds to C=C(C)C(=O)Nc1ccc(-c2c(-c3ccc(S(=O)(=O)NC4CCCC4O)cc3)c3c(N)ncnc3n2C)cc1 (stereo not shown) ?
Reply: 1000 to 100000 nM

* * *

Biological target: FGFR2 (Homo sapiens (Human))
Assay: Biochemical FGFR2 Caliper assay
pIC50: −log10 of the molar value.
ATTRIBUTE MEASURED: pIC50

Query: Find the measured pIC50: item C=CC(=O)N[C@@H]1CCc2cc(-c3c(-c4ccc(Oc5nccc(C)n5)cc4)c4c(N)ncnc4n3C)ccc21 (single isomer, unassigned) , target or system FGFR2 (Homo sapiens (Human)).
Reply: 6.00 to 6.60

Query: Please give the result for C=C(C)C(=O)Nc1ccc(-c2c(-c3ccc4[nH]ncc4c3)c3c(N)ncnc3n2C)cc1 too.
Reply: 4.00 to 6.00

Query: Please give the result for C=C(C)C(=O)Nc1ccc(-c2c(C3=CC[C@H](C(=O)N4CCC5(CC5)C4)CC3)c3c(N)ncnc3n2C)cc1 (single isomer, unassigned) too.
Reply: 6.60 to 7.00

Query: Please give the result for C=CC(=O)N1CC[C@@H](c2c(C3=CC[C@H](C(=O)N4CCCC4)CC3)c3c(N)ncnc3n2C)C1 (single isomer, unassigned) too.
Reply: 4.00 to 6.00

Query: Please give the result for Cc1ccnc(Oc2ccc(-c3c(-c4ccc(N5C(=O)C=CC5=O)cc4)n(C)c4ncnc(N)c34)cc2)n1 too.
Reply: > 7.00

* * *

Recorded IC50, one value per entry.
Target: FGFR2 (Homo sapiens (Human))
Assay: Biochemical FGFR2 Caliper assay

The cases that follow already have their IC50 on record.
1) C=C(C)C(=O)Nc1ccc(-c2c(-c3ccc(Oc4cccc(C)n4)cc3)c3c(N)ncnn3c2C#N)cc1 ... 100 to 250 nM
2) C#Cc1cc2cc(-c3c(-c4ccc(Oc5nccc(C)n5)c(F)c4)c4c(N)ncnc4n3C)ccc2cn1 ... 1000 to 100000 nM

Query compound follows.
Query: Which measured IC50 value corresponds to C#Cc1ccc(-c2c(-c3ccc(Oc4nccc(C)n4)c(F)c3)c3c(N)ncnc3n2C)c(F)n1 ?
Reply: 1000 to 100000 nM

* * *

Recorded IC50, one value per entry.
Biological target: FGFR2 (Homo sapiens (Human), UniProt P21802)
Experiment: FGFR2 Biochemical Caliper Assay

The cases that follow already have their IC50 on record.
1) C=C(C)C(=O)Nc1ccc(-c2c(-c3ccc(Oc4ccc(Cl)cn4)cc3)c3c(N)ncnc3n2C)cc1 [Example 97] ... 250 to 1000 nM
2) C=Cc1ncc(-c2c(-c3ccc(C(=O)N4CCCC4)cc3)c3c(N)ncnc3n2C)cn1 [Example 554] ... 250 to 1000 nM
3) Cn1c(-c2ccc(N3CC=CS3(=O)=O)cc2)c(-c2ccc(C(=O)N3CCCC3)cc2)c2c(N)ncnc21 [Example 556] ... 250 to 1000 nM

Query compound follows.
Query: Which measured IC50 value corresponds to C=C(C)C(=O)Nc1ccc(-c2c(-c3ccc(Cn4nccc4C)cc3)c3c(N)ncnc3n2C)cc1 [Example 266] ?
Reply: 1000 to 100000 nM

* * *

Biological target: FGFR2 (Homo sapiens (Human))
Assay: Biochemical FGFR2 Caliper assay
pIC50: −log10 of the molar value.
Recorded pIC50, one value per entry.

Query: Which measured pIC50 value corresponds to C=C(C)C(=O)Nc1cc(Cl)c(-c2c(-c3ccc(Oc4nccc(C)n4)cc3)c3c(N)ncnc3n2C)cc1F [Example 1076] ?
Reply: > 7.00

Query: Please give the result for C#Cc1cc(C)c(-c2c(-c3ccc(Oc4nccc(C)n4)c(F)c3)c3c(C(F)F)ncnc3n2C)cn1 [Example 1432] too.
Reply: 4.00 to 6.00

Query: Please give the result for C=C(C)C(=O)Nc1ccc(-c2c(C3=CCC(C#N)CC3)c3c(N)ncnc3n2C)cc1 (stereo not shown) [Example 1287] too.
Reply: 4.00 to 6.00

Query: Please give the result for C#C[C@H]1CCCN1C(=O)[C@@H]1CC=C(c2c(-c3ccc(NC(=O)C(=C)C)cc3)n(C)c3ncnc(N)c23)CC1 (single isomer, unassigned) [Example 953] too.
Reply: > 7.00

Query: Please give the result for C#Cc1cc(C)c(-c2c(-c3ccc(C(=O)N4CCC[C@@H]4C#C)cc3)c3c(N)ncnc3n2C)cn1 [Example 1187] too.
Reply: > 7.00

Query: Please give the result for C=CC(=O)Nc1ccc(-c2c(-c3cc[nH]c3)c3c(N)ncnc3n2C)cc1 [Example 1154] too.
Reply: > 7.00

Query: Please give the result for C=C(C)C(=O)Nc1ccc(-c2c(C3=CC[C@](C)(C(=O)N4CCCC4)CC3)c3c(N)ncnc3n2C)cc1 [Example 1024] too.
Reply: 6.00 to 6.60

* * *

Target: FGFR2 (Homo sapiens (Human), UniProt P21802)
Assay: FGFR2 Biochemical Caliper Assay
pIC50: −log10 of the molar value.
Recorded pIC50, one value per entry.

1. C=C(C)C(=O)Nc1ccc(-c2c(-c3ccc(Oc4nccc(C)n4)c(F)c3)c3c(N)ncnc3n2C)c(C)c1 ... > 7.00

Query: Which measured pIC50 value corresponds to C=C(C)C(=O)Nc1ccc(-c2c(-c3ccc(Oc4ncc(F)cn4)cc3)c3c(N)ncnc3n2C)cc1 ?
Reply: > 7.00

Query: Please give the result for C=C(C)C(=O)Nc1ccc(-c2c(-c3ccc(C(=O)N4CC5COCC5C4)cc3)c3c(N)ncnc3n2C)cc1 (stereo not shown) too.
Reply: 6.00 to 6.60

Query: Please give the result for C=C(C)C(=O)Nc1ccc(-c2c(-c3ccc(Oc4nccc(C)n4)c(C(F)F)c3)c3c(N)ncnc3n2C)cc1 too.
Reply: 6.60 to 7.00

* * *

Molecular target: FGFR2 (Homo sapiens (Human), UniProt P21802)
Assay: FGFR2 Biochemical Caliper Assay
Recorded IC50, one value per entry.

The cases that follow already have their IC50 on record.
1. C=C(C)C(=O)Nc1ccc(-c2c(-c3ccc(C(=O)N4CCCC4)cc3C(F)F)c3c(N)ncnc3n2C)cc1 ... 1000 to 100000 nM
2. C=C(C)C(=O)Nc1ccc(-c2c(-c3ccc(N4CCCC4=O)nc3)c3c(N)ncnc3n2C)cc1 ... 1000 to 100000 nM
3. C=CC(=O)Nc1ccc(-c2c(-c3ccc(Cn4nc(C)cc4C)cc3)c3c(N)ncnc3n2C)cc1 ... < 100 nM

Query: Which measured IC50 value corresponds to C=C(C)C(=O)Nc1ccc(-c2c(-c3ccc(C(=O)NC4CC(F)C4)cc3)c3c(N)ncnc3n2C)cc1 (centres unmarked) ?
Reply: < 100 nM

Query: Please give the result for C=CC(=O)Nc1ccc(-c2c(-c3ccc(Oc4ccn(C)n4)cc3)c3c(N)ncnc3n2C)cc1 too.
Reply: < 100 nM

Query: Please give the result for C=C(C)C(=O)Nc1ccc(-c2c(-c3ccc(OCc4ccccc4)nc3)c3c(N)ncnc3n2C)cc1 too.
Reply: 1000 to 100000 nM
